# Procedure Details: AML differentiation inducers, ER-HoxA9 marrow cells – cell-based, GFP/MAC1 double positive, flow cytometry, validation set, primary screen (AID 588685);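 further: compound exposure lasts four days before antibody staining and flow analysis; 0% = DMSO wells and 100% = 5 µM fulvestrant positive control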
# Study Conditions: hits give high values, normalized: vehicle 0, fulvestrant 100
Hi there, I'd appreciate the recorded differentiation response for every entry that follows.
One number for each entry, in %.

Here's what some known entries look like.
C[C@@H]1C[C@H](Nc2ccccc2)c2ccccc2N1C(=O)c1cccnc1 :: 29.6
COc1ccc(C(=O)COc2ccc(F)cc2)c(O)c1 :: 1.22
CCNC(=S)N1CCN(CCN2C(=O)c3cccc4cccc(c34)C2=O)CC1 :: -8.96

Field: differentiation response. Fill in for each record below.
1. CCCCCCCC(=O)OCC(=O)[C@@]1(O)CC[C@H]2[C@@H]3CCC4=CC(=O)CC[C@]4(C)[C@H]3[C@@H](O)C[C@@]21C
2. CCN1CCn2c3c(c4cc(Cl)ccc42)CCCC31 (stereo unspecified)
3. COc1ccc2nc(S(=O)Cc3ncc(C)c(OC)c3C)[nH]c2c1 (stereo unspecified)
4. NS(=O)(=O)c1ccc(CNC(=O)c2cc(-c3ccccc3)nc3ccccc23)cc1

1. 5.13
2. -21.7
3. 52.5
4. 5.13

For every item in the list below, what is its measured differentiation response?
1. COc1ccccc1Oc1c(C)oc2c(CN3CCN(CCO)CC3)c(O)ccc2c1=O
2. O=C(COc1ccc2c(-c3ccccc3)cc(=O)oc2c1)NCc1cccs1

1. 11.5
2. 6.83

Give differentiation response for each listed item.
1. CC(=O)N(C(C)=O)c1nc2nc(C)cc(C)n2n1
2. COc1ccc(NC(=O)CC(c2ccccc2)c2ccco2)cc1 (stereo unspecified)

1. -6.55
2. 1.22

###

# Procedure Details: TOR pathway LAP4-GFP level changes – S. cerevisiae, multiplex flow cytometry, primary screen (AID 1873)
# Study Conditions: S. cerevisiae LAP4-GFP expression, 3 h, at 10 µM, hits give high values
Inconclusive results are not listed. Peptide text beside a SMILES is read from it.
Readout Label: GFP response vs DMSO (%)
Give bare numbers, in %.

Cc1nc2ccccc2n1CC(O)Cn1c2ccccc2c2ccccc21 (configuration not stated) :: 78.7

Hi team, please reply with GFP response vs DMSO for each item in this list.
1. C=CCC1(O)C(=O)N2C(=C1C(=O)N1CCOCC1)c1ccccc1CC2(C)C (configuration not stated)
2. CCc1ccc(CN(C)Cc2nc(Cc3ccccc3)no2)nc1
3. O=C1[C@@H]2CSCN2C(=O)CN1Cc1ccc(F)cc1
4. O=C(/C=C/c1ccccc1)c1ccccc1
5. CC(=O)NC(CC(C)C)C(=O)NC(Cc1ccccc1)C(N)=O (stereo not drawn) (Ac-Leu-Phe-NH2; configuration not given here)
6. c1ccc2c(c1)CCOC2CNCCCN1CCCCC1 (configuration not stated)

1: 95.3; 2: 112; 3: 82; 4: 79.8; 5: 111; 6: 98

Hi there! I need GFP response vs DMSO for each item below, if you can.
1. CCN(CC)C(=O)N1CCN(C)CC1
2. COc1ccc(C(C)=O)c2c1OCCO2
3. Clc1ccc(CCNc2ncnc3nc[nH]c23)cc1
4. CCc1oc2ccccc2c1C(=O)c1cc(Br)c(O)c(Br)c1

101
88.7
105
78.1

Param item = `NCCc1ccc(O)c(O)c1` ; retrieve measured GFP response vs DMSO. 92

Each recorded value in this set is attributed to PubChem BioAssay.
